Cited source for all entries: patent US10183949B2

Target: Human autotaxin enzyme (Homo sapiens)
Construct: purchased R&D System
Assay: Evaluation of autotaxin inhibitor, 18:0 Lyso PC / choline assay (Test Example 2)
Format: biochemical
Conditions: human autotaxin enzyme, 18:0 Lyso PC substrate, choline assay, room temperature 2 hours; read-out: Inhibitor activity (IC50)
MEASUREMENT_LABEL: IC50

{"COMPOUND": "Cc1nc(-c2ccc(Cl)cc2NC(=O)C2CC2)cc(=O)n1CC(=O)NC(C)C [Compound I-0391]", "RESULT": "10 to 100 nM"}

QUERY: Which IC50 value belongs to O=C(Cn1cnc(-c2ccc(Cl)cc2)cc1=O)NCCCCNC(=O)c1ccc2nn[nH]c2c1 [Compound I-0472] ?
RESULT: ≥ 1000 nM

QUERY: // repeat for COC(=O)Nc1cc(Cl)ccc1-c1cc(=O)n(CC(=O)NC(C)(C)C(F)(F)F)c(C)n1 [Compound I-0457] and report
RESULT: < 10 nM

QUERY: # iterate: CCCCCc1nc(-c2ccc(Cl)cc2)cc(=O)n1CC(=O)N1CCC(F)(F)CC1 [Compound I-0087]
RESULT: 10 to 100 nM

* * *

Target: Human autotaxin enzyme (Homo sapiens, UniProt Q13822)
Construct: purchased R&D System
Assay: Evaluation of autotaxin inhibitor, 18:0 Lyso PC / choline assay (Test Example 2)
Format: biochemical
Conditions: human autotaxin enzyme, 18:0 Lyso PC substrate, choline assay, room temperature 2 hours; read-out: Inhibitor activity (IC50)
MEASUREMENT_LABEL: IC50

Consider the reported IC50 for these molecules:
{"MOLECULE": "CN1CNC(=O)C12CCN(C(=O)Cn1c(CCCC(F)(F)F)nc(-c3ccc(C(F)(F)F)cc3)cc1=O)CC2 [Compound I-0361]", "TGT": "Human autotaxin enzyme (Homo sapiens, UniProt Q13822)", "IC50": "10 to 100 nM"}
{"MOLECULE": "CCCCCc1nc(-c2ccc(Cl)cc2)cc(=O)n1CC(=O)NC1CCOCC1 [Compound I-0086]", "TGT": "Human autotaxin enzyme (Homo sapiens, UniProt Q13822)", "IC50": "100 to 1000 nM"}
{"MOLECULE": "O=C(Cn1c(CCCC(F)(F)F)nc(-c2ccc(C(F)(F)F)cc2)cc1=O)N1CCC(N2CCNC2=O)CC1 [Compound I-0362]", "TGT": "Human autotaxin enzyme (Homo sapiens, UniProt Q13822)", "IC50": "10 to 100 nM"}

QUERY: Field request: IC50 | item: CCCCCc1nc(-c2ccc(Cl)cc2)cc(=O)n1CC(=O)NCC#N [Compound I-0085]
RESULT: 10 to 100 nM

* * *

This listing pairs molecules with measured IC50.
Molecular target: Human autotaxin enzyme (Homo sapiens, UniProt Q13822)
Construct: purchased R&D System
Experiment: Evaluation of autotaxin inhibitor, 18:0 Lyso PC / choline assay (Test Example 2)
Format: biochemical
Conditions: human autotaxin enzyme, 18:0 Lyso PC substrate, choline assay, room temperature 2 hours; read-out: Inhibitor activity (IC50)

Some solved cases for reference:
{"MOLECULE": "O=C(Cn1c(CCCC(F)(F)F)nc(-c2ccc(Cl)cc2)cc1=O)NC1CCS(=O)(=O)C1 (stereo not shown)", "IC50": "10 to 100 nM"}
{"MOLECULE": "CC(C)(C)NC(=O)c1cccc(Cn2cnc(-c3ccc(Cl)cc3NC(=O)C(C)(C)C)cc2=O)c1", "IC50": "100 to 1000 nM"}
{"MOLECULE": "O=C(NCCO)c1cccc(Cn2c(CCCC(F)(F)F)nc(-c3ccc(Cl)cc3)cc2=O)c1", "IC50": "100 to 1000 nM"}
{"MOLECULE": "CNC(=O)NC1CCN(C(=O)Cn2c(C)nc(-c3ccc(C#N)cc3NC(=O)OC)cc2=O)CC1", "IC50": "10 to 100 nM"}
{"MOLECULE": "CCCCCc1nc(-c2ccc(Cl)cc2)cc(=O)n1CC(=O)NCCCO", "IC50": "100 to 1000 nM"}

QUERY: What does the record list as IC50 for CC(C)(C)C(=O)Nc1cc(Cl)ccc1-c1cc(=O)n(Cc2cccc(C(=O)N3CCC(O)CC3)c2)cn1 ?
RESULT: 10 to 100 nM

QUERY: Okay, and COC(=O)c1cccc(Cn2c(CCCC(F)(F)F)nc(-c3ccc(Cl)cc3)cc2=O)n1 ?
RESULT: 10 to 100 nM

* * *

A collection of compounds and their measured pIC50
Molecular target: Human autotaxin enzyme (Homo sapiens)
Construct: purchased R&D System
Experiment: Evaluation of autotaxin inhibitor, 18:0 Lyso PC / choline assay (Test Example 2)
Type: biochemical
Details: human autotaxin enzyme, 18:0 Lyso PC substrate, choline assay, room temperature 2 hours; read-out: Inhibitor activity (IC50)
pIC50: −log10 of the molar value.

Look over these answered cases.
{"COMPOUND": "CCS(=O)(=O)N1CCN(C(=O)c2cccc(Cn3cnc(-c4ccc(Cl)cc4NC(=O)C(C)(C)C)cc3=O)c2)CC1", "pIC50": "7.00 to 8.00"}
{"COMPOUND": "CSc1nc(-c2ccc(Cl)cc2NC(=O)C2CC2)cc(=O)n1CC(=O)NC1(C#N)CC1", "pIC50": "7.00 to 8.00"}
{"COMPOUND": "CCCCCc1nc(-c2ccc(Cl)cc2)cc(=O)n1CC(=O)NCCC(=O)O", "pIC50": "7.00 to 8.00"}
{"COMPOUND": "Cc1nc(-c2ccc(Cl)cc2NC(=O)C2CC2)cc(=O)n1CC(=O)N1CCC(O)CC1", "pIC50": "7.00 to 8.00"}
{"COMPOUND": "N#CC1(NC(=O)Cn2c(CCC(F)(F)F)nc(-c3ccc(Cl)cc3)cc2=O)CC1", "pIC50": "≤ 6.00"}
{"COMPOUND": "COC(=O)Nc1cc(Cl)ccc1-c1cc(=O)n(CC(=O)NC2(C(=N)NO)CC2)c(C)n1", "pIC50": "7.00 to 8.00"}

We next turn to a different compound, shown below.
QUERY: Dear colleague, I am looking for the recorded pIC50 of the following compound: O=C(c1cccc(Cn2c(CCCC(F)(F)F)nc(-c3ccc(Cl)cc3)cc2=O)c1)N1CCC(CO)CC1
RESULT: > 8.00

* * *

Target: Human autotaxin enzyme (Homo sapiens, UniProt Q13822)
Construct: purchased R&D System
Experiment: Evaluation of autotaxin inhibitor, 18:0 Lyso PC / choline assay (Test Example 2)
Type: biochemical
Conditions: human autotaxin enzyme, 18:0 Lyso PC substrate, choline assay, room temperature 2 hours; read-out: Inhibitor activity (IC50)
pIC50: −log10 of the molar value.
Readings of pIC50 for the listed molecules

Consider the worked cases shown below.
{"MOLECULE": "CCCCCc1nc(OC2CCC(C#N)CC2)cc(=O)n1CC(=O)NC1(C#N)CC1 (stereo not shown) [Compound I-0208]", "pIC50": "≤ 6.00"}
{"MOLECULE": "COC(=O)Nc1cc(C#N)ccc1-c1cc(=O)n(CC(=O)NC2(C)COC2)c(C)n1 [Compound I-0397]", "pIC50": "7.00 to 8.00"}
{"MOLECULE": "CS(C)(=O)=NC(=O)Cn1c(CCCC(F)(F)F)nc(-c2ccc(C(F)(F)F)cc2)cc1=O [Compound I-0325]", "pIC50": "7.00 to 8.00"}
{"MOLECULE": "N#Cc1ccc(-c2cc(=O)n(CC(=O)NC3(C#N)CC3)c(CCCC(F)(F)F)n2)c(F)c1 [Compound I-0235]", "pIC50": "> 8.00"}
{"MOLECULE": "CC(C)(C)C(=O)Nc1cc(Cl)ccc1-c1cc(=O)n(CC(=O)Nc2cnccc2O)cn1 [Compound I-0447]", "pIC50": "6.00 to 7.00"}

QUERY: GET /values?readout=pIC50&system=Human autotaxin enzyme (Homo sapiens, UniProt Q13822)&item= CCCCCc1nc(-c2ccc(Cl)cc2)cc(=O)n1CC(=O)NC(CO)Cc1ccc(F)cc1 (stereo not shown) [Compound I-0075]
RESULT: ≤ 6.00

QUERY: Also COC(=O)c1cc(Cn2c(CCCC(F)(F)F)nc(-c3ccc(Cl)cc3)cc2=O)cs1 [Compound I-0313] ?
RESULT: 6.00 to 7.00

QUERY: What do we get for CCCCCc1nc(-c2ccc(Cl)cc2)cc(=O)n1CC(=O)NC1CCS(=O)(=O)CC1 [Compound I-0093] ?
RESULT: 7.00 to 8.00

QUERY: For CN(CC(O)CO)C(=O)Cn1c(CCCC(F)(F)F)nc(-c2ccc(Cl)cc2)cc1=O (stereo not shown) [Compound I-0132] then?
RESULT: 6.00 to 7.00

* * *

Target: Human autotaxin enzyme (Homo sapiens)
Construct: purchased R&D System
Assay: Evaluation of autotaxin inhibitor, 18:0 Lyso PC / choline assay (Test Example 2)
Assay type: biochemical
Details: human autotaxin enzyme, 18:0 Lyso PC substrate, choline assay, room temperature 2 hours; read-out: Inhibitor activity (IC50)
Listed here are compounds together with their documented IC50.

Consider the reported IC50 for these compounds:
{"COMPOUND": "CCCCCNc1nc(-c2ccc(C(F)(F)F)cc2)cc(=O)n1Cc1ccc(C(=O)NC(Cc2ccccc2)C(=O)O)cc1 (centres unmarked)", "MEASUREMENT_LABEL": "IC50", "RESULT": "100 to 1000 nM"}
{"COMPOUND": "O=C(NCc1cc(=O)[nH]o1)c1cccc(Cn2c(CCCC(F)(F)F)nc(-c3ccc(Cl)cc3)cc2=O)c1", "MEASUREMENT_LABEL": "IC50", "RESULT": "10 to 100 nM"}
{"COMPOUND": "CC(C)(C)C(=O)Nc1cc(Cl)ccc1-c1cc(=O)n(CC(=O)NCC2(CO)COC2)c(CCC(F)(F)F)n1", "MEASUREMENT_LABEL": "IC50", "RESULT": "100 to 1000 nM"}
{"COMPOUND": "CN(C(=O)Cn1c(CCCC(F)(F)F)nc(-c2ccc(C(F)(F)F)cc2)cc1=O)C1(C)COC1", "MEASUREMENT_LABEL": "IC50", "RESULT": "10 to 100 nM"}
{"COMPOUND": "Cc1nc(-c2ccc(F)cc2NC(=O)C(C)(C)C)cc(=O)n1CC(=O)NCC1(CO)COC1", "MEASUREMENT_LABEL": "IC50", "RESULT": "100 to 1000 nM"}

QUERY: Request the reported IC50 associated with O=C(NC(CO)c1ccccc1)c1cccc(Cn2c(CCCC(F)(F)F)nc(-c3ccc(Cl)cc3)cc2=O)c1 (centres unmarked)
RESULT: 100 to 1000 nM

QUERY: Similarly, O=C(Cn1c(CCCC(F)(F)F)nc(-c2ccc(C(F)(F)F)cc2)cc1=O)NC1(c2nc(=O)o[nH]2)CC1 ?
RESULT: 10 to 100 nM

QUERY: One more compound: N#CC1(NC(=O)Cn2c(CCCC(F)(F)F)nc(N3CCC(C(F)(F)F)CC3)cc2=O)CC1
RESULT: 10 to 100 nM

QUERY: Continue with COC(=O)Nc1cc(C#N)ccc1-c1cc(=O)n(CC(=O)NC2(C#N)CC2)c(C)n1
RESULT: < 10 nM

QUERY: Also need O=C(Cn1c(CCCC(F)(F)F)nc(-c2ccc(C(F)(F)F)cc2)cc1=O)NCC1(O)CCCCC1 , thanks.
RESULT: 10 to 100 nM

QUERY: Lookup NC(=O)CCCNC(=O)c1cccc(Cn2c(CCCC(F)(F)F)nc(-c3ccc(Cl)cc3)cc2=O)c1
RESULT: 100 to 1000 nM

QUERY: Item: O=C(O)c1ccc(Cn2c(CCCC(F)(F)F)nc(-c3ccc(Cl)cc3)cc2=O)s1
RESULT: 10 to 100 nM

QUERY: Thanks! And N#CC1(NC(=O)Cn2c(CCCC(F)(F)F)nc(N3CCC(F)(F)CC3)cc2=O)CC1 ?
RESULT: 100 to 1000 nM

QUERY: # iterate: Cc1nc(-c2ccc(Cl)cc2NC(=O)C(C)(C)C)cc(=O)n1CC(=O)NC1(C(=N)NO)CC1
RESULT: 10 to 100 nM

QUERY: Then Cc1nc(C2=CCC(C(F)(F)F)CC2)cc(=O)n1Cc1cccc(C(=O)O)c1 (centres unmarked) ?
RESULT: 100 to 1000 nM

QUERY: Same again, this time with O=C(Cn1cnc(-c2ccc(Cl)cc2)cc1=O)NCCNC(=O)c1ccc2nn[nH]c2c1
RESULT: ≥ 1000 nM

QUERY: Input COC(=O)Nc1cc(Cl)ccc1-c1cc(=O)n(CC(=O)N2CCC(CC(=O)OC(C)(C)C)CC2)c(C)n1
RESULT: < 10 nM

QUERY: Next compound: CN(CCC#N)C(=O)c1cccc(Cn2c(CCCC(F)(F)F)nc(-c3ccc(Cl)cc3)cc2=O)c1
RESULT: 10 to 100 nM

QUERY: Here is the next compound: COC(=O)Nc1cc(Cl)ccc1-c1cc(=O)n(CC(=O)N(C(C)C)C(C)C)c(C)n1
RESULT: 10 to 100 nM

QUERY: // repeat for COC(=O)Nc1cc(C#N)ccc1-c1cc(=O)n(CC(=O)N2CCC(C(N)=O)CC2)c(C)n1 and report
RESULT: < 10 nM

QUERY: Would you kindly repeat that for C[C@@H]1COC[C@H](C)N1C(=O)Cn1c(CCCC(F)(F)F)nc(-c2ccc(Cl)cc2)cc1=O ?
RESULT: 10 to 100 nM

QUERY: Can you check CCCCCc1nc(-c2ccc(Cl)cc2)cc(=O)n1CC(=O)N1CCCCC1C(=O)O (centres unmarked) next?
RESULT: 100 to 1000 nM

QUERY: Queued: COC(=O)c1cncc(Cn2c(CCCC(F)(F)F)nc(-c3ccc(Cl)cc3)cc2=O)c1
RESULT: 100 to 1000 nM

QUERY: And CC(C)(C)C(=O)Nc1cc(Cl)ccc1-c1cc(=O)n(Cc2cccc(C(=O)N3CCC(C(N)=O)CC3)c2)cn1 ?
RESULT: 10 to 100 nM

QUERY: Another compound: CCCCCc1nc(-c2ccc(Cl)cc2)cc(=O)n1CC(=O)N1CCOCC1
RESULT: 10 to 100 nM

QUERY: Next compound up: O=C(NCC1(CO)COC1)c1cccc(Cn2c(CCCC(F)(F)F)nc(-c3ccc(Cl)cc3)cc2=O)c1
RESULT: 100 to 1000 nM

QUERY: Lookup COCCCc1nc(-c2ccc(Cl)cc2)cc(=O)n1CC(=O)NCC1(CO)CC1
RESULT: 100 to 1000 nM

QUERY: Try CCCCCc1nc(-c2ccc(Cl)cc2)cc(=O)n1CC(=O)NCc1cccc(=O)n1C next.
RESULT: 100 to 1000 nM

QUERY: Then what about the compound CCNS(=O)(=O)CCNC(=O)Cn1c(CCCC(F)(F)F)nc(-c2ccc(Cl)cc2)cc1=O ?
RESULT: 10 to 100 nM
